- system under test: human D2R/β-arrestin (Homo sapiens (Human))
- method notes: cell-based
- condition parameters: cAMP Antagonist, CHO-K1 cells expressing human D2R/β-arrestin; antagonist mode, 2.5 μM forskolin and 2.7 nM quinpirole
// reported IC50 per item

For orientation, consider the following solved cases.
CC1(Oc2ccc(N)cc2)CCN(CCOc2ccccc2)C1 (stereo not drawn); > 30 µM
CC(C)Oc1ccc(F)cc1OCCN1CCC(C)(Oc2ccc(Cl)cc2)CC1; 0.1 to 1 µM
CC1(Oc2ccccn2)CCN(CCOc2ccccc2)C1 (stereo not drawn); > 30 µM
CC1(Oc2ccc(Cl)cc2)CCN(CCOc2ccc(C#N)cc2)CC1; > 30 µM

Problem: Requested read-out: IC50. Entry: CC1(Oc2ccncc2)CCN(CCOc2ccccc2)C1 (stereo not drawn)
Solution: > 30 µM

Problem: Which IC50 is reported for this molecule? CC1(Oc2ccc(Cl)cc2)CCN(CCCCOc2ccccc2)CC1
Solution: > 30 µM

###

Here, each record is paired with measured EC50 data.
- system under test: human D2R/β-arrestin (Homo sapiens (Human))
- method notes: Gi/cAMP agonist assay (Lance Ultra cAMP, forskolin)
- Format: cell-based
- condition parameters: CHO-K1 cells expressing human D2R/β-arrestin; agonist mode, 2.5 μM forskolin

CC1(Oc2ccc(Cl)cc2)CCN(CCOc2ccc(F)cc2)CC1 [Compound 149]; < 100 nM
CC1(Oc2ccccn2)CCN(CCOc2ccccc2)C1 (centres unmarked) [Example 57]; 100 to 1000 nM
CC1(O)CCN(CCCOc2ccccc2C(F)(F)F)CC1 [Compound 138]; > 30000 nM

Problem: Which EC50 is listed for CC1(Oc2ccc(Cl)cc2)CCN(CCOc2ccc3ncoc3c2)CC1 [Compound 127] ?
Solution: < 100 nM

Problem: Consider the molecule shown here: CC(=O)NC1(C)CCN(C[C@H]2COc3ccccc3O2)CC1 [Compound 208] What is its recorded EC50?
Solution: < 100 nM

Problem: For CC1(OCc2ccccc2)CCN(CCOc2ccccc2C(F)(F)F)CC1 [Compound 126] , what is its reported EC50?
Solution: > 30000 nM

Problem: Requested field: EC50. Item: CC1(Oc2ccc(Cl)cc2)CCCN(CCOc2ccc3scnc3c2)C1 (centres unmarked) [Example 99]
Solution: > 30000 nM

Problem: Consider the molecule shown here: CC1(C(=O)N2CCCC2)CCN(C[C@H]2COc3ccccc3O2)CC1 [Compound 206] What is its recorded EC50?
Solution: < 100 nM

###

- system under test: human D2R/β-arrestin (Homo sapiens (Human), UniProt P14416)
- Sequence (P14416 whole entry): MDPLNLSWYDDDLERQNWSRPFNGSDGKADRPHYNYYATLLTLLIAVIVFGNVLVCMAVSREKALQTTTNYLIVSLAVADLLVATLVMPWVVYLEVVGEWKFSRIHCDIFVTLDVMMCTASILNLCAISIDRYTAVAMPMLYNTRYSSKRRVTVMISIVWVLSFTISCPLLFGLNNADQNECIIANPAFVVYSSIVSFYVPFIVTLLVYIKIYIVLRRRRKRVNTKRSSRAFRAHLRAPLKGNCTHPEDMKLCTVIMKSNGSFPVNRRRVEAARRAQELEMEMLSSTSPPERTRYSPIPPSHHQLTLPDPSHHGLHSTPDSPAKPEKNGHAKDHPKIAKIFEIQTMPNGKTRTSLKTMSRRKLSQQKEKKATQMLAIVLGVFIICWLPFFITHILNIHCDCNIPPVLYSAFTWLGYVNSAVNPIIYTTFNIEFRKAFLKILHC
- method notes: cell-based
- condition parameters: cAMP Antagonist, CHO-K1 cells expressing human D2R/β-arrestin; antagonist mode, 2.5 μM forskolin and 2.7 nM quinpirole
# IC50 values compiled below

CC1(Oc2ccc(Cl)cc2)CCN(CCCOc2ccccc2)C1 (stereo not shown); 0.1 to 1 µM
OC1(c2ccccc2)CCN(CCOc2ccccc2)C1 (stereo not shown); 0.1 to 1 µM
CC1(Oc2ccc(Cl)cc2)CCN(CCOc2ccncc2C(F)(F)F)CC1; 1 to 10 µM

Moving on to the next compound.
Problem: Given the compound CC1(Oc2ccc(Cl)cc2)CCN(CCOc2ccc(F)cc2S(C)(=O)=O)CC1 , what is its reported IC50?
Solution: 0.1 to 1 µM

###

- system under test: D2 receptor (Homo sapiens (Human))
- Sequence (P14416 whole entry): as above
- method notes: D2 radioligand binding assay
pKi: −log10 of the molar value.
// values below are reported pKi

Illustrative cases are given below, each with its answer.
CC1(Oc2ccc(Cl)cc2)CCN(CCOc2ccc(F)cc2C(F)(F)F)CC1; 6.00 to 7.00
CC1(NC(=O)C2CC2)CCN(C[C@H]2COc3ccccc3O2)CC1; 6.00 to 7.00
FC(F)(F)c1ccccc1OCCN1CCC2(CC1)CC2c1ccccc1 (centres unmarked) [Example 102a]; 6.00 to 7.00

Problem: Looking for the measured pKi of CC1(C(=O)c2ccccc2)CCN(CCOc2ccccc2C(F)(F)F)CC1 , can you help?
Solution: > 7.00

Problem: Field request: pKi | item: CC1(Oc2cccc(C(F)(F)F)c2)CCN(CCOc2ccccc2)C1 (centres unmarked)
Solution: 5.00 to 6.00

Problem: What pKi value was documented for this molecule, CN(C)C(=O)C1(C)CCN(C[C@H]2COc3ccccc3O2)CC1 ?
Solution: 6.00 to 7.00

Problem: Sample FC(F)(F)c1ccccc1OCCN1CCC2(CCCN2c2ccc(Cl)cc2)CC1 — what was its pKi?
Solution: > 7.00

Problem: Entry CC1(Oc2ccccc2)CCN(CCOc2ccccc2C(F)(F)F)CC1 : reported pKi = ?
Solution: 6.00 to 7.00

Problem: Given the entry CC1(Oc2ccc(Cl)cc2)CCN(CCOc2ccc(C(F)(F)F)cc2)CC1 , report its measured pKi.
Solution: 5.00 to 6.00

Problem: For the molecule CC1(Oc2ccccc2)CCN(CCOc2ccc(C(F)(F)F)cc2)CC1 , what pKi is on record?
Solution: 6.00 to 7.00

Problem: Which pKi value is on record for CC1(Oc2ccncc2)CCN(CCOc2ccccc2)C1 (centres unmarked) [Example 59] ?
Solution: 5.00 to 6.00

Problem: Endpoint output: pKi of CC1(Oc2ccc(Cl)cc2)CCN(CCOc2ccccc2F)CC1 . Value?
Solution: > 7.00

Problem: Quick check: pKi of CC1(Oc2ccc(Cl)cc2)CCN(CCOc2ccc3ncsc3c2)C1 (centres unmarked) [Compound 18b] ?
Solution: 5.00 to 6.00

Problem: May I ask what pKi has been recorded for CC1(Oc2ccc(Cl)cc2)CCCN(CCOc2ccccc2)C1 (centres unmarked) ?
Solution: 6.00 to 7.00
